- ASSAY SYSTEM: PI3Kδ (p110δ/p85α) Recombinant Human Protein (Homo sapiens (Human))
- PROTOCOL NOTES: PI3Kδ Scintillation Proximity Assay
Where a name gives a salt, the structure may show the parent alone.
Entries and their measured IC50 follow.

{"columns": ["COMPOUND", "IC50"],
 "data": [
  ["COC1CCCN(S(=O)(=O)c2ccc(C)c(-c3cnc4c(N)nc(C(F)(F)F)cn34)c2)C1 (stereo not shown)", "100 to 500 nM"],
  ["Cc1ccc(S(=O)(=O)NC23CC(Cn4cncn4)(C2)C3)cc1-c1cnc2c(N)nc(C(F)(F)F)nn12", "100 to 500 nM"],
  ["COCCN1CCCC(NC(=O)c2cn3c(-c4cc(S(C)(=O)=O)ccc4C)cnc3c(N)n2)C1 (stereo not shown) [Example 458, trifluoroacetate salt]", "> 2000 nM"],
  ["Cc1ccc(S(=O)(=O)CC2(O)CCC2)cc1-c1cnc2c(N)nc(-c3ccncc3F)cn12", "< 100 nM"],
  ["Cc1ccc(S(=O)(=O)NC2CC(F)(F)C2)cc1-c1cnc2c(N)nc(C(=O)NC3CCC3)cn12 [Example 448, trifluoroacetate salt]", "500 to 2000 nM"],
  ["Cc1ccc(S(=O)(=O)NCC2CCN(C(=O)C3CC3)CC2)cc1-c1cnc2c(N)nccn12 [Example 86]", "500 to 2000 nM"]
]}

Now take the following compound into account.
stdin: For Cc1ccc(S(=O)(=O)N2CCC(C)(C#N)C2)cc1-c1cnc2c(N)ncnn12 (stereo not shown) , what is its reported IC50?
stdout: 500 to 2000 nM

---

- ASSAY SYSTEM: PI3Kγ (p110γ) Recombinant Human Protein (Homo sapiens (Human), UniProt P48736)
- Sequence (P48736 whole entry): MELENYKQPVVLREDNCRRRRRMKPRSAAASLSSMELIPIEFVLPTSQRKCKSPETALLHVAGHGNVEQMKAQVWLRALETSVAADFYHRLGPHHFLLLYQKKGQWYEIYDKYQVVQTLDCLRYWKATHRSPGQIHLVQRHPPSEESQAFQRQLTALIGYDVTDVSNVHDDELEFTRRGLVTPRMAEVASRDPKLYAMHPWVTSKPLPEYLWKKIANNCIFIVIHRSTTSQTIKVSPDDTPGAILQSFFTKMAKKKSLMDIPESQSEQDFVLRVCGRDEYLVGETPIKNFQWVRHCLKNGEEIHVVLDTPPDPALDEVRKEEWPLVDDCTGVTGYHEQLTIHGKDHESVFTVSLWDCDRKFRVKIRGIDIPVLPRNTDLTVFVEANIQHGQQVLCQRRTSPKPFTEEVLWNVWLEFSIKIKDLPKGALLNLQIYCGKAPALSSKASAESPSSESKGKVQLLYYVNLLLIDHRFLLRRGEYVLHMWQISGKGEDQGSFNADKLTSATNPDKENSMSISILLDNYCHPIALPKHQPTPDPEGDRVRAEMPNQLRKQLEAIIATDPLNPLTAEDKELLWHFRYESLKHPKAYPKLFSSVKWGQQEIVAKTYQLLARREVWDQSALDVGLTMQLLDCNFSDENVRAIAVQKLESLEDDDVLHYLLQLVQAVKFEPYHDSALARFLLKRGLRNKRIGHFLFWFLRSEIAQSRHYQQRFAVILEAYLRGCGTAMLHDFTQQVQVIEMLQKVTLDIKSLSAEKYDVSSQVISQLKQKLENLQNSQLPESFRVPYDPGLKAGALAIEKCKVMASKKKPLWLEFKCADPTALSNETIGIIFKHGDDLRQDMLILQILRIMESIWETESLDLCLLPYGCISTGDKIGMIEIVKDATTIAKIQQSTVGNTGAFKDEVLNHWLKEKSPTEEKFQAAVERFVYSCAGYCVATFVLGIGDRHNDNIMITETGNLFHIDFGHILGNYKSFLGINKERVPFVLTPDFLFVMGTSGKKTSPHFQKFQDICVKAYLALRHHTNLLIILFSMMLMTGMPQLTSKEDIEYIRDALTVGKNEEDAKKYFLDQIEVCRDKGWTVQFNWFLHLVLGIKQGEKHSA
- PROTOCOL NOTES: PI3K-γ Scintillation Proximity Assay
- Format: biochemical
- ASSAY SETUP: read-out: PI3Kγ IC50
pIC50: −log10 of the molar value. Where a name gives a salt, the structure may show the parent alone.
The entries below are paired with their reported pIC50.

{"columns": ["COMPOUND", "pIC50"],
 "data": [
  ["Cc1ccc(S(=O)(=O)N2CC3C(O)C2CN3C2CCCC2C#N)cc1-c1cnc2c(N)nc(C(F)(F)F)nn12 (stereo not drawn)", "> 7.00"],
  ["Cc1ccc(S(=O)(=O)N[C@H]2CC[C@H](O)CC2)cc1-c1cnc2c(N)c(-c3cnn(C)c3)ccn12", "> 7.00"]
]}

stdin: Record request: pIC50 value, item "Cc1ccc(S(=O)(=O)N[C@H]2C[C@H](O)C2)cc1-c1cnc2c(N)ncnn12"
stdout: > 7.00

stdin: Reported pIC50 for "COc1cc(C)c(-c2cnc3c(N)nccn23)cc1S(=O)(=O)N[C@H]1CC[C@H](O)CC1" : what is it?
stdout: 6.30 to 7.00

stdin: Using the record for "Cc1ccc(S(=O)(=O)N2C[C@H](N)C[C@H](C(F)(F)F)C2)cc1-c1cnc2c(N)nc(C(F)(F)F)cn12" , report its pIC50.
stdout: > 7.00

stdin: Please look up its pIC50: "Cc1ccc(S(=O)(=O)N2CCCC23CCOCC3)cc1-c1cnc2c(N)ncnn12"
stdout: > 7.00

stdin: Please look up its pIC50: "Cc1ccc(S(=O)(=O)NC2CC(CO)(CO)C2)cc1-c1cnc2c(N)ncnn12"
stdout: > 7.00

stdin: Give the measured pIC50 of Cc1ccc(S(=O)(=O)NC23CC(Cn4ccnc4)(C2)C3)cc1-c1cnc2c(N)nc(C(F)(F)F)cn12 [Example 284, trifluoroacetate salt] .
stdout: > 7.00

stdin: Which measured pIC50 value corresponds to Cc1ccc(S(=O)(=O)N2CC3(CC(O)C3)C2)cc1-c1cnc2c(N)nc(C(F)(F)F)nn12 [Example 343, TFA] ?
stdout: > 7.00

stdin: Quick check: pIC50 of Cc1ccc(S(=O)(=O)NC2CN(CCO)C2)cc1-c1cnc2c(N)nc(C(F)(F)F)nn12 [Example 329, trifluoroacetate salt] ?
stdout: > 7.00

stdin: Requested read-out: pIC50. Entry: Cc1ccc(S(=O)(=O)NC23CCC(C(N)=O)(C2)C3)cc1-c1cnc2c(N)ncnn12 [Example 110, trifluoroacetate salt]
stdout: > 7.00

stdin: What value of pIC50 has been reported for the following compound? "Cc1ccc(S(=O)(=O)N2CCN3C(=O)OC[C@H]3C2)cc1-c1cnc2c(N)ncnn12"
stdout: 6.30 to 7.00

stdin: Please give the measured pIC50 for this compound: Cc1ccc(S(=O)(=O)N2CC3CCOCC3C2)cc1-c1cnc2c(N)ncnn12 (stereo not drawn)
stdout: > 7.00

stdin: # get_value(readout='pIC50', item= Cc1ccc(S(=O)(=O)NC23CCC(C(C)(C)O)(CC2)C3)cc1-c1cnc2c(N)ncnn12 [Example 431, trifluoroacetate salt] )
stdout: > 7.00

stdin: Given the compound "Cc1ccc(S(=O)(=O)NCC(C)(C)O)cc1-c1cnc2c(NCc3ccccc3)nc(C(F)(F)F)cn12" , what is its reported pIC50?
stdout: 6.30 to 7.00

---

- ASSAY SYSTEM: PI3Kδ (p110δ/p85α) Recombinant Human Protein (Homo sapiens (Human), UniProt O00329)
- Sequence (O00329 whole entry): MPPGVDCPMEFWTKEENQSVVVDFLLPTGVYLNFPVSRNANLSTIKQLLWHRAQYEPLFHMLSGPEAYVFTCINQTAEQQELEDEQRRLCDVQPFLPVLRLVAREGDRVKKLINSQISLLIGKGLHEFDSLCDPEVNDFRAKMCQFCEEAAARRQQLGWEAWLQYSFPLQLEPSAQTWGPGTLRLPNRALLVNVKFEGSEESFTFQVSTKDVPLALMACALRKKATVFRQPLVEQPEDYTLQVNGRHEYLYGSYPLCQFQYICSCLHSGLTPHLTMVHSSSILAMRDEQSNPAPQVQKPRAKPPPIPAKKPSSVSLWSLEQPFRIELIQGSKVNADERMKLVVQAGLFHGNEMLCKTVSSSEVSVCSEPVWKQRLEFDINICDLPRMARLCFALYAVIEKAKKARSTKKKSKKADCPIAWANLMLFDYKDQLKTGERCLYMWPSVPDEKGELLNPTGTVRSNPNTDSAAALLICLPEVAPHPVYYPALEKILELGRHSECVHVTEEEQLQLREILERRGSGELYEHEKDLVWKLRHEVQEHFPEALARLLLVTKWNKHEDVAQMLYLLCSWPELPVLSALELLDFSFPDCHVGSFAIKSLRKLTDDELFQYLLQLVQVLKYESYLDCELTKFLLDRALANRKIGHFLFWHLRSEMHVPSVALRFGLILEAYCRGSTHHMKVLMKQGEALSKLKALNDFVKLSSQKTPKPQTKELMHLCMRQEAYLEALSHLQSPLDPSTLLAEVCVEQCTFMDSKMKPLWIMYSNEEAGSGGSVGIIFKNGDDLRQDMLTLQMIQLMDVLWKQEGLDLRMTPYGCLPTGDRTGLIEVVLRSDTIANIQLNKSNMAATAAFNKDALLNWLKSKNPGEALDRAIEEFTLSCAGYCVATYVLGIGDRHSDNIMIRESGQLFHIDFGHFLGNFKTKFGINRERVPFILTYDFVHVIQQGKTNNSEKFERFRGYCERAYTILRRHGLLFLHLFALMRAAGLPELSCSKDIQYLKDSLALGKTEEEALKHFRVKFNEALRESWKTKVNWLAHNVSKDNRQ
- Sequence (P27986 whole entry partner): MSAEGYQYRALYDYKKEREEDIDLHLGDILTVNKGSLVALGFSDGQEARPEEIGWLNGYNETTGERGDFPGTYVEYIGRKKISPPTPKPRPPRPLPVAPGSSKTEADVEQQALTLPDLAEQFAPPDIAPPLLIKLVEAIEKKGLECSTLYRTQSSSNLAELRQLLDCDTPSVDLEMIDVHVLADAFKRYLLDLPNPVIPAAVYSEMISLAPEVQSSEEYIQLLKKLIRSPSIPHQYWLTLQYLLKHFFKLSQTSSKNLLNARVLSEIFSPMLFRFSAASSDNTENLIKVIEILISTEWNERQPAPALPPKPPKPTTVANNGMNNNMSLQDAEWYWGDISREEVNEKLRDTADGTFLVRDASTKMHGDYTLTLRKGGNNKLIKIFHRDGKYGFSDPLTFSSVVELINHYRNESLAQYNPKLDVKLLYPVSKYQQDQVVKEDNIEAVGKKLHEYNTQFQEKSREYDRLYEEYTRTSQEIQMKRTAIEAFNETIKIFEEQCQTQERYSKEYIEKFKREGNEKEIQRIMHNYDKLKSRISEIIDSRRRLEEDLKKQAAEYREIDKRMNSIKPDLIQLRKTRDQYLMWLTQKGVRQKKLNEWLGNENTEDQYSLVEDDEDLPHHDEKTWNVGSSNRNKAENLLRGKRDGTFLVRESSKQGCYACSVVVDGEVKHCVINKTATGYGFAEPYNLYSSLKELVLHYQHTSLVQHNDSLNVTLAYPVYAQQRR
- PROTOCOL NOTES: PI3Kδ Scintillation Proximity Assay
pIC50: −log10 of the molar value. Structures can show the parent of a compound that is named as a salt.
Entries annotated with measured pIC50

Here's what some known entries look like.
{"columns": ["COMPOUND", "ASSAY SYSTEM", "pIC50"],
 "data": [
  ["Cc1ccc(S(=O)(=O)N2CCC(c3ccncc3)C2)cc1-c1cnc2c(N)ncnn12 (stereo not shown) [Example 201]", "PI3Kδ (p110δ/p85α) Recombinant Human Protein (Homo sapiens (Human), UniProt O00329)", "5.70 to 6.30"],
  ["Cc1ccc(S(=O)(=O)N2CCOC3CNCC32)cc1-c1cnc2c(N)nc(C(F)(F)F)cn12 (stereo not shown) [Example 304]", "PI3Kδ (p110δ/p85α) Recombinant Human Protein (Homo sapiens (Human), UniProt O00329)", "5.70 to 6.30"],
  ["Cc1ccc(S(=O)(=O)N2C[C@H](O)[C@@H](N3CCN(C)CC3)C2)cc1-c1cnc2c(N)ncnn12 [Example 167]", "PI3Kδ (p110δ/p85α) Recombinant Human Protein (Homo sapiens (Human), UniProt O00329)", "< 5.70"],
  ["Cc1ccc(S(=O)(=O)NC23CC(CF)(C2)C3)cc1-c1cnc2c(N)nc(C(F)(F)F)nn12 [Example 331, trifluoroacetate salt]", "PI3Kδ (p110δ/p85α) Recombinant Human Protein (Homo sapiens (Human), UniProt O00329)", "6.30 to 7.00"],
  ["Cc1c(F)cc(S(=O)(=O)NCC(C)(C)O)cc1-c1cnc2c(N)nc(CO)nn12 [Example 470]", "PI3Kδ (p110δ/p85α) Recombinant Human Protein (Homo sapiens (Human), UniProt O00329)", "5.70 to 6.30"],
  ["Cc1ccc(S(=O)(=O)N2CC(=O)N3CCCC[C@@H]3C2)cc1-c1cnc2c(N)ncnn12 [Example 172]", "PI3Kδ (p110δ/p85α) Recombinant Human Protein (Homo sapiens (Human), UniProt O00329)", "5.70 to 6.30"]
]}

stdin: // lookup pIC50 for Cc1ccc(S(=O)(=O)N[C@H]2CC[C@H](O)CC2)cc1-c1cnc2c(N)nc(-c3cccs3)cn12 [Example 27]
stdout: 6.30 to 7.00

stdin: Could you share which pIC50 value was measured for Cc1ccc(S(=O)(=O)N2CC(O)(C3CC3)C2)cc1-c1cnc2c(N)ncnn12 [Example 144, TFA] ?
stdout: 6.30 to 7.00

stdin: Recorded pIC50 of Cc1ccc(S(=O)(=O)N(C)CC2(C)COC2)cc1-c1cnc2c(N)ncnn12 [Example 176] , please.
stdout: < 5.70

stdin: Reported pIC50 for Cc1ccc(S(=O)(=O)N2CCC(O)CC2)cc1-c1cnc2c(N)nccn12 [Example 51] : what is it?
stdout: 5.70 to 6.30

stdin: Recorded pIC50 of Cc1ccc(S(=O)(=O)NC2CCC(C)(O)CC2)cc1-c1cnc2c(N)nccn12 (stereo not shown) [Example 85] , please.
stdout: 5.70 to 6.30

stdin: Suppose we examine the compound Cc1ccc(S(=O)(=O)NC2CCOCC2)cc1-c1cnc2c(N)ncnn12 [Example 68] ; what pIC50 value has been reported?
stdout: 5.70 to 6.30

stdin: Name the reported pIC50 value associated with the compound Cc1ccc(S(=O)(=O)N2CCS(=O)(=O)CC2C)cc1-c1cnc2c(N)ncnn12 (stereo not shown) [Example 162]
stdout: 5.70 to 6.30

stdin: // lookup pIC50 for Cc1ccc(S(C)(=O)=O)cc1-c1cnc2c(N)nc(-c3ccncc3Cl)cn12 [Example 484, trifluoroacetate]
stdout: 6.30 to 7.00

stdin: If you can, please state the reported pIC50 value of Cc1cn2c(-c3cc(S(=O)(=O)NC45CCC(C#N)(C4)C5)ccc3C)cnc2c(N)n1 [Example 263, trifluoroacetate salt] .
stdout: 6.30 to 7.00

stdin: Recorded pIC50 of Cc1ccc(S(=O)(=O)N[C@]2(C)CC[C@@H](O)CC2)cc1-c1cnc2c(N)ncnn12 [Example 127] , please.
stdout: 5.70 to 6.30
